The values you see were collected from ChEMBL document CHEMBL2331404.

Record: Ki reported on Carbonic anhydrase 2 (Homo sapiens, UniProt P00918).
Unit nM implied. Number only.

Solved cases below.
COC(=O)c1ccc(O)c(O)c1 [METHYL PROTOCATECHUATE]; 580
CCOC(=O)c1cc(O)ccc1O; 690
CCOC(=O)c1c(O)cccc1O; 560

Kindly review the next compound as well.
Q: What value of measured Ki is listed for CC(C)OC(=O)/C=C/c1ccc(O)cc1 [ISOPROPYL 3-(4-HYDROXYPHENYL)ACRYLATE] ?
Result: 520
